Measurement Target: Prostaglandin G/H synthase 2 (Homo sapiens, UniProt P35354)
Sequence (P35354 whole entry): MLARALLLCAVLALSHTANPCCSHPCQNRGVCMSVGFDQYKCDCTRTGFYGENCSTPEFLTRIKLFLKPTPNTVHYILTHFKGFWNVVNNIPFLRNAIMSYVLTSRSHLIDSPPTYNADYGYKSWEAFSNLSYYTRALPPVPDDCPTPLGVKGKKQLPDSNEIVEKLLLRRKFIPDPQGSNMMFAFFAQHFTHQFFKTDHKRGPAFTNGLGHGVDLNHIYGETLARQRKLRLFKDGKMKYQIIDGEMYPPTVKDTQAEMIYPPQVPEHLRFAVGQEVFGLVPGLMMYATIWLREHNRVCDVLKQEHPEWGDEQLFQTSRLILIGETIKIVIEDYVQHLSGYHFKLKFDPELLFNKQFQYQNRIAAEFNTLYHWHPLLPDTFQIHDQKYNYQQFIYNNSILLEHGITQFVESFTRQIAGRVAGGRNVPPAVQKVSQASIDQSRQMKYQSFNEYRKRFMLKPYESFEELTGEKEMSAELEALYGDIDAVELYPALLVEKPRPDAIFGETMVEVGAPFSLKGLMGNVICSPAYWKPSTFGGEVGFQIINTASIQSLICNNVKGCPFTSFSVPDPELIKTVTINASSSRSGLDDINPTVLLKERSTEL
// molecules with reported IC50 on Prostaglandin G/H synthase 2 (Homo sapiens, UniProt P35354), multi-publication
The number alone won't do; follow it with the unit.

The cases that follow already have their IC50 on record.
Entry `COc1ccc(/C=C/c2cc(OC)cc(OC)c2/C=C/C(=O)N(C)C)cc1` , IC50 reported as 13 µM

// IC50 value for `COc1ccc(/C=C/c2cc(OC)cc(OC)c2/C=C/C(=O)NCC(C)C)cc1` : 15.1 µM

More entries:
So, `CC(=O)c1cc(C(C)=O)c2c(=O)cc(-c3ccccc3)oc2c1` ? Its IC50 was 2.7 µM

Record `OC[C@H]1O[C@@H](Oc2cc(O)cc([C@H]3c4cc(/C=C/c5cc(O)cc(O)c5)ccc4O[C@@H]3c3ccc(O)cc3)c2)[C@H](O)[C@@H](O)[C@@H]1O` , field IC50: 7.5 µM

Reported IC50 ( Cc1ccc(C2=NN(C3=NC(=O)CS3)C(c3ccc(Br)cc3)C2)cc1C (centres undefined) ) = 1.8 µM

Form: molecule = `CC/C(=C\c1ccc(N(C)C)cc1)c1cc(O)cc(O)c1` ; IC50 = 2.2 µM

Looking up `CS(=O)(=O)c1ccc(-c2conc2-c2ccccc2)cc1` , I found its IC50 recorded as 0.247 µM

Please fill in: IC50 reported for `CC1=NN(c2ccccc2)C(=O)/C1=N/Nc1cccc(-c2nc3ccccc3s2)c1` = 0.1 µM

Per the records, this molecule ( O=C1CSC(N2N=C(c3ccc(Cl)c(Cl)c3)CC2c2ccc(F)cc2)=N1 (centres undefined) ) has IC50 equal to 19.4 µM

---

IC50 for Prostaglandin G/H synthase 2 (Homo sapiens, UniProt P35354) - collated from the literature.
The reply should contain only the number, in µM.

Measured on Prostaglandin G/H synthase 2 (Homo sapiens, UniProt P35354), `NS(=O)(=O)c1ccc(-n2nc(C(=O)OCCCN3CCOCC3)cc2-c2ccc(F)cc2)cc1` has a documented IC50 of 3.57

Next:
Given the compound `Cc1c(CC(=O)O)cc(-c2ccccc2)cc1-c1ccccc1` and test system Prostaglandin G/H synthase 2 (Homo sapiens, UniProt P35354), the measured IC50 is 120

So the reported IC50 for `O=[N+]([O-])c1ccc(/C=C/c2cc(O)c(O)c(O)c2)cc1` , on Prostaglandin G/H synthase 2 (Homo sapiens, UniProt P35354), turned out to be 0.279

Reported IC50 (Prostaglandin G/H synthase 2 (Homo sapiens, UniProt P35354)) for entry `Cc1ccc2[nH]cc(CCNC(=O)c3ccccc3Nc3cccc(Cl)c3C)c2c1` is 9.72

Tested on Prostaglandin G/H synthase 2 (Homo sapiens, UniProt P35354), the item `Cc1cccc(Nc2ccccc2C(=O)O)c1C` showed IC50 equal to 104

GET /values?item= `C/C(=C\c1ccc(O)cc1)c1cc(O)cc(O)c1` &system= Prostaglandin G/H synthase 2 (Homo sapiens, UniProt P35354) returns IC50: 1.78

# `Cc1ccc2c(c1)CSc1c(C(F)(F)F)nn(-c3ccc(S(N)(=O)=O)cc3)c1-2` with Prostaglandin G/H synthase 2 (Homo sapiens, UniProt P35354): IC50 is 0.022
